The entries below come with measured melting point values attached.

Reference set, count: 5
• O=C(N[C@H](Cc1cccc(OC(F)(F)F)c1)[C@@H](O)c1ccc(F)cc1)c1ccc(F)c2ccccc12 (racemic) = 189 to 190 °C
• O=C(N[C@H](Cc1cccc(OC(F)(F)C(F)F)c1)[C@@H](O)c1ccc(Cl)nc1)c1cccc2c1C=CCCC2 (racemic) = 170 to 172 °C
• N#Cc1ccc(C(=O)N[C@H](Cc2ccc(C(F)(F)F)cc2)[C@@H](O)c2ccc(F)cc2)c2ccccc12 (racemic) = 199 to 201 °C
• O=C(N[C@H](Cc1cccc(C=C(F)C(F)F)c1)[C@@H](O)c1ccc(F)cc1)c1ccc(F)c2ccccc12 (racemic) = 184 to 185 °C
• CC(C)(C)OC(=O)N[C@H](Cc1cccc(OC(F)(F)C(F)F)c1)[C@@H](O)c1ccc(Oc2cccnc2)cc1 (racemic) = 123 to 124 °C

For reference, reported melting point for O=C(N[C@H](Cc1ccc(C(F)(F)F)cc1)[C@@H](O)c1ccc(F)cc1)c1cccc2c(Cl)cccc12 (racemic) stands at 211 to 212 °C

For reference, reported melting point for O=C(N[C@H](Cc1ccc(C(F)(F)F)cc1)[C@@H](O)c1ccc(F)cc1)c1ccc(/C=C\c2ccc(Cl)cc2)cc1 (racemic) stands at 193 to 194 °C

For reference, reported melting point for O=C(CCc1ccccc1)N[C@H](Cc1ccc(C(F)(F)F)cc1)[C@@H](O)c1ccccc1F (racemic) stands at 124 to 125 °C

For reference, reported melting point for O=C(N[C@H](Cc1ccc(C(F)(F)F)cc1)[C@@H](O)c1cccc2ccccc12)c1ccc(C(F)(F)F)cc1 (racemic) stands at 232 to 233 °C

For reference, reported melting point for O=C(N[C@H](Cc1ccc2c(c1)OC(F)(F)C(F)(F)O2)[C@@H](O)c1ccc(F)cc1)c1ccc(F)c2ccccc12 (racemic) stands at 193 to 194 °C

For reference, reported melting point for O=C(N[C@H](Cc1ccc(C(F)(F)F)cc1)[C@@H](O)c1ccc(Cl)nc1)c1ccc(F)c2ccccc12 (racemic) stands at 188 to 189 °C

For reference, reported melting point for O=C(N[C@H](Cc1cccc(OC(F)(F)C(F)F)c1)[C@@H](O)c1ccc(CO)cc1)c1cccc2c1C=CCCC2 (racemic) stands at 151 to 152 °C

For reference, reported melting point for O=C(N[C@H](Cc1cccc(OC(F)(F)C(F)F)c1)[C@@H](O)c1ccc(-c2ccccc2Cl)cc1)c1cccc2c1C=CCCC2 (racemic) stands at 172 to 173 °C

----------
Value kind: melting point

• O=C(N[C@H](Cc1cccc(OC(F)(F)C(F)F)c1)[C@@H](O)c1ccc(OCC2CCCCC2)cc1)c1cccc2c1C=CCCC2 (racemic) = 141 to 142 °C
• O=C(N[C@H](Cc1cccc(OC(F)(F)C(F)F)c1)[C@@H](O)c1ccc(Oc2ccccc2)cn1)c1cccc2c1C=CCCC2 (racemic) = 147 to 148 °C

For reference, reported melting point for CC(C)(C)C(F)(F)c1ccc(C[C@@H](NC(=O)c2cccc3c2C=CCCC3)[C@@H](O)c2cccc(Cl)c2)cc1 (racemic) stands at 119 to 120 °C

For reference, reported melting point for O=C(CCCc1ccccc1)N[C@H](Cc1ccc(F)cc1)[C@@H](O)c1ccc(C(F)(F)F)cc1 (racemic) stands at 155 to 156 °C

For reference, reported melting point for O=C(N[C@H](Cc1cccc(OC(F)(F)C(F)F)c1)[C@@H](O)c1cccc(F)n1)c1cccc2c1C=CCCC2 (racemic) stands at 151 to 152 °C

For reference, reported melting point for O=C(NC(Cc1ccc(C(F)(F)F)cc1)C(O)c1ccc(F)cc1)c1cccs1 (racemic) stands at 135 to 164 °C

----------
Value kind: melting point

Reference set, count: 2
- CCOc1ccc2ccccc2c1C(=O)N[C@H](Cc1ccc(C(F)(F)F)cc1)[C@H](O)c1ccc(F)cc1 (racemic) [Example 25]: 186 to 187 °C
- COC(=O)c1ccc(COc2ccc([C@@H](O)[C@H](Cc3cccc(OC(F)(F)C(F)F)c3)NC(=O)c3cccc4c3C=CCCC4)cc2)cc1 (racemic) [Example 248]: 169 to 170 °C

For reference, reported melting point for O=C(N[C@H](Cc1cccc(OC(F)(F)C(F)F)c1)[C@@H](O)c1ccc(-c2cccc(Cl)c2)cc1)c1cccc2c1C=CCCC2 (racemic) [Example 295] stands at 131 to 132 °C

For reference, reported melting point for CC(F)(F)c1cccc(C[C@@H](NC(=O)c2cccc3c2C=CCCC3)[C@@H](O)c2ccc(F)cc2)c1 (racemic) [Example 360] stands at 170 to 171 °C

For reference, reported melting point for O=C(N[C@H](Cc1ccc(OC(F)(F)C(F)F)cc1)[C@@H](O)c1ccc(F)cc1)c1ccc(F)c2ccccc12 (racemic) [Example 131] stands at 192 to 193 °C

----------
Value kind: melting point

• CC(C)Oc1cccc(C[C@@H](NC(=O)c2ccc(F)c3ccccc23)[C@@H](O)c2ccc(F)cc2)c1 (racemic) [Example 283] = 190 to 191 °C
• O=C(N[C@H](Cc1ccc(C(F)(F)F)cc1)[C@@H](O)c1ccc(F)cc1)c1cccc2c1OCC2 (racemic) [Example 77] = 121 to 122 °C
• O=C(N[C@H](Cc1cccc(OC(F)(F)C(F)F)c1)[C@@H](O)c1ccc(-c2ccc(CO)cc2)cc1)c1cccc2c1C=CCCC2 (racemic) [Example 304] = 189 to 191 °C
• O=C(NC(Cc1ccc(C(F)(F)F)cc1)C(O)c1ccc(F)cc1)c1ccc(Cl)cc1 (racemic) [Example 9] = 170 to 180 °C

For reference, reported melting point for CC(C)(C)c1cccc(C[C@@H](NC(=O)c2ccc(F)c3ccccc23)[C@@H](O)c2cccc(Cl)c2)c1 (racemic) [Example 369] stands at 76 to 78 °C

For reference, reported melting point for O=C(N[C@H](Cc1ccc(C(F)(F)F)cc1)[C@@H](O)c1ccc(F)cc1)c1ccc([C@@H]2O[C@@H]2c2ccc(Cl)cc2)cc1 (racemic) [Example 93] stands at 162 to 166 °C

For reference, reported melting point for CC1(C)CC=Cc2c(cccc2C(=O)N[C@H](Cc2cccc(OC(F)(F)C(F)F)c2)[C@@H](O)c2ccc(F)cc2)C1 (racemic) [Example 288] stands at 115 to 116 °C

For reference, reported melting point for COc1ccc(C(=O)N[C@H](Cc2ccc(C(F)(F)F)cc2)[C@@H](O)c2ccc(F)cc2)cc1 (racemic) [Example 60] stands at 192 to 193 °C

----------
The entries below come with measured melting point values attached.

- COc1ccc([C@H](O)[C@@H](Cc2ccc(C(F)(F)F)cc2)NC(=O)c2ccc(F)c3ccccc23)cc1 (racemic) [Example 192]: 184 to 185 °C
- CC(C)(C)OC(=O)N[C@H](Cc1ccc(C(F)(F)F)cc1)[C@@H](O)c1ccc(F)cc1 (racemic) [Example 28]: 158 to 159 °C
- O=C(NC(Cc1ccc(C(F)(F)F)cc1)C(O)c1ccc(F)cc1)c1ccccc1F (racemic) [Example 18]: 115 to 117 °C
- O=C(N[C@H](Cc1ccc(F)cc1)[C@@H](O)c1ccc(F)cc1)c1cccc2ccccc12 (racemic) [Example 144]: 199 to 200 °C
- CC(C)(C)c1ccc(C[C@@H](NC(=O)c2cccc3c(F)cccc23)[C@@H](O)c2cccc(Cl)c2)cc1 (racemic) [Example 275]: 102 to 103 °C
- COc1ccc(C[C@@H](NC(=O)C2CCCCC2)[C@@H](O)c2ccc(F)cc2)cc1 (racemic) [Example 150]: 193 to 194 °C

For reference, reported melting point for O=C(CCCc1ccccc1)N[C@H](Cc1ccc(F)cc1)[C@@H](O)c1ccc(F)cc1 (racemic) [Example 147] stands at 147 to 148 °C

For reference, reported melting point for O=C(N[C@H](Cc1ccc(C(F)(F)F)cc1)[C@@H](O)c1ccc(F)cc1)c1ccc2c(c1)OCO2 (racemic) [Example 72] stands at 180 to 181 °C

For reference, reported melting point for O=C(N[C@H](Cc1ccc(C(F)(F)F)cc1)[C@@H](O)c1ccc(F)cc1)c1cccc2ccccc12 (racemic) [Example 35] stands at 214 to 216 °C

For reference, reported melting point for Cc1ccc(C(=O)NC(Cc2ccc(C(F)(F)F)cc2)C(O)c2ccc(F)cc2)c2ccccc12 (racemic) [Example 2] stands at 149 to 150 °C

For reference, reported melting point for O=C(N[C@H](Cc1cccc(OC(F)(F)C(F)F)c1)[C@@H](O)c1cccc(OCc2ccccc2)c1)c1cccc2c1C=CCCC2 (racemic) [Example 240] stands at 128 to 129 °C

For reference, reported melting point for O=C(N[C@H](Cc1cccc(C(F)(F)F)c1)[C@@H](O)c1ccc(F)cc1)c1ccc(F)c2ccccc12 (racemic) [Example 137] stands at 193 to 194 °C

For reference, reported melting point for NC(=O)c1ccc([C@H](O)[C@@H](Cc2cccc(OC(F)(F)C(F)F)c2)NC(=O)c2cccc3c2C=CCCC3)cc1 (racemic) [Example 311] stands at 197 to 199 °C

For reference, reported melting point for CC(C)Oc1ccc([C@H](O)[C@@H](Cc2cccc(OC(F)(F)C(F)F)c2)NC(=O)c2cccc3c2C=CCCC3)cc1 (racemic) [Example 243] stands at 134 to 135 °C
